- Tested on: Mus musculus
- testSummary: Increase in locomotor activity in reserpinized mice following 0.4 umol/kg i.p.
- Format: functional
propertyLabel: Locomotor activity
Lab note: jot down the number only; don't add units.

Reference set (8 entries):
> print(dat)
                                   molecule       propertylabel  numericresult
1  CCCN1CC[C@@H]2c3cccc(OC)c3CC[C@H]21 (racemic)  Locomotor activity              1
2  C=CCN1CC[C@H]2c3c(O)cccc3CC[C@H]21 (racemic)  Locomotor activity            135
3  C=CCN1CC[C@@H]2c3cccc(OC)c3CC[C@H]21 (racemic)  Locomotor activity              4
4  C=CCN1CC[C@H]2c3c(cccc3OC)CC[C@H]21 (racemic)  Locomotor activity              6
5  C=CCN1CCC2c3cccc(OC)c3CC[C@H]21 (mixture of isomers)  Locomotor activity             15
6  C=CCN1CCC2c3c(cccc3OC)CC[C@H]21 (single isomer, unassigned; (-))  Locomotor activity              7
7  C=CCN1CC[C@@H]2c3c(O)cccc3CC[C@H]21 (racemic)  Locomotor activity             26
8  C=CCN1CCC2c3cccc(O)c3CC[C@H]21 (single isomer, unassigned; (-))  Locomotor activity             73

// switching to the query molecule
What the record says about `CCCN1CC[C@H]2c3c(cccc3OC)CC[C@H]21` : Locomotor activity is 19

----------
- systemTested: D(2) dopamine receptor (Homo sapiens)
- testSummary: Intrinsic activity from GTP shift using membranes from CHO cells transfected with mammalian dopamine receptor D2.
- Format: cell membranes
Intrinsic activity reference
I only need the number, in %, no unit after it.

Reference set (3 entries):
> print(dat)
                                   compound  numericresult
1  C=CCN1CC[C@H]2c3cccc(O)c3CC[C@H]21 (racemic)             29
2  CCCN1CC[C@@H]2c3cccc(O)c3CC[C@H]21 (racemic)             28
3  C=CCN1CC[C@@H]2c3c(cccc3OC)CC[C@H]21 (racemic)              0

What the record says about `CCCN1CC[C@@H]2c3c(O)cccc3CC[C@@H]21` : Intrinsic activity is 0

What the record says about C=CCN1CC[C@@H]2c3c(O)cccc3CC[C@H]21 (racemic) : Intrinsic activity is 13

What the record says about C=CCN1CCC2c3c(cccc3OC)CC[C@@H]21 (single isomer, unassigned; (+)) : Intrinsic activity is 17

What the record says about CCCN1CC[C@@H]2c3cccc(OC)c3CC[C@H]21 (racemic) : Intrinsic activity is 0

----------
- systemTested: D(2) dopamine receptor (Homo sapiens, UniProt P14416)
- Sequence (P14416 whole entry): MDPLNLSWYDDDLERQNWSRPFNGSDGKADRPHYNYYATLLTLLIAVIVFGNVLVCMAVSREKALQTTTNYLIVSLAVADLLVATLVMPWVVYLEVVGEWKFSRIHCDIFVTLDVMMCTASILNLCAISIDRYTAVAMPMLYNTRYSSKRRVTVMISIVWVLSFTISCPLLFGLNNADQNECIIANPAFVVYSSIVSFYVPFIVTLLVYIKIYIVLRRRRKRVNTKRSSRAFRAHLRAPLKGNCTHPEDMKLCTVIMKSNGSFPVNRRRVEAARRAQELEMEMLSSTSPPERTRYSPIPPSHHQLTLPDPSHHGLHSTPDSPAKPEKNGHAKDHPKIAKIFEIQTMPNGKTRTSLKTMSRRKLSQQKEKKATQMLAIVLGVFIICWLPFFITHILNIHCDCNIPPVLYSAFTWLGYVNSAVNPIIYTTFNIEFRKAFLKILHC
- testSummary: Binding affinity against [3H]U-86,170-labeled dopamine receptor D2 in cloned CHO cells
- Type: cell-based
propertyLabel: Ki (nM)
I only need the number, in nM, no unit after it.

Reference set (8 entries):
> print(dat)
                                   molecule  propertylabel  scaleunit  numericresult
1  CCCN1CC[C@@H]2c3cccc(O)c3CC[C@H]21 (racemic)             Ki         nM             93
2  C=CCN1CCC2c3c(cccc3OC)CC[C@H]21 (single isomer, unassigned; (-))             Ki         nM            6.7
3  CCCN1CC[C@H]2c3cccc(O)c3CC[C@H]21 (racemic)             Ki         nM            218
4  C=CCN1CCC2c3cccc(O)c3CC[C@@H]21 (single isomer, unassigned; (+))             Ki         nM             59
5  C=CCN1CC[C@H]2c3cccc(O)c3CC[C@H]21 (racemic)             Ki         nM             75
6  C=CCN1CC[C@@H]2c3cccc(O)c3CC[C@H]21 (racemic)             Ki         nM            4.1
7  C=CCN1CC[C@@H]2c3c(O)cccc3CC[C@H]21 (racemic)             Ki         nM             25
8  C=CCN1CCC2c3cccc(O)c3CC[C@H]21 (single isomer, unassigned; (-))             Ki         nM            108

What the record says about C=CCN1CC[C@@H]2c3c(cccc3OC)CC[C@H]21 (racemic) : Ki is 8.5

----------
- systemTested: D(2) dopamine receptor (Homo sapiens)
- testSummary: Intrinsic activity from GTP shift using membranes from CHO cells transfected with mammalian dopamine receptor D2.
- Assay type: cell membranes
Intrinsic activity reference
I only need the number, in %, no unit after it.

Reference set (8 entries):
> print(dat)
                                   compound  scaleunit  numericresult
1  C=CCN1CCC2c3cccc(O)c3CC[C@H]21 (single isomer, unassigned; (-))          %             22
2          CN(C)CCCN1c2ccccc2Sc2ccc(Cl)cc21          %              5
3  C=CCN1CCC2c3cccc(O)c3CC[C@@H]21 (single isomer, unassigned; (+))          %             50
4  C=CCN1CCC2c3c(cccc3OC)CC[C@H]21 (single isomer, unassigned; (-))          %             24
5  C=CCN1CC[C@@H]2c3cccc(O)c3CC[C@H]21 (racemic)          %             44
6  CCCN1CC[C@H]2c3cccc(O)c3CC[C@H]21 (racemic)          %              1
7  C=CCN1CCC2c3cccc(OC)c3CC[C@H]21 (mixture of isomers)          %              0
8  C=CCN1CC[C@@H]2c3cccc(OC)c3CC[C@H]21 (racemic)          %              0

What the record says about `C=CCN1CC[C@H]2c3cccc(OC)c3CC[C@H]21` : Intrinsic activity is 0

----------
- Tested on: Mus musculus
- testSummary: Maximum decrease in temperature when compound is administered subcutaneously
- Format: functional
Rule: Max temperature decrease of 4 or more gives label 1; anything lower gives label 0.

> print(dat)
                                   compound  classname
1  C=CCN1CC[C@@H]2c3cccc(O)c3CC[C@H]21 (racemic)    label 0
2       CCCN1CC[C@@H]2c3c(O)cccc3CC[C@@H]21    label 1
3      CCCN1CCC2c3c(cccc3OC)CCC21 (racemic)    label 0
4  CCCN1[C@@H]2CCc3cccc(OC)c3C2C[C@@H]1C (mixture of isomers)    label 1

(Q) Given C=CCN1CC[C@@H]2c3ccccc3CC[C@H]21 (racemic) , state whether its Max temperature decrease is at least 4.
(A) label 1

(Q) Given C=CCN1CC[C@@H]2c3c(cccc3OC)CC[C@H]21 (racemic) , state whether its Max temperature decrease is at least 4.
(A) label 1

(Q) Given CCCN1CCC2c3c(O)cccc3CCC21 (racemic) , state whether its Max temperature decrease is at least 4.
(A) label 1

(Q) Given C=CCN1CC[C@H]2c3ccccc3CC[C@H]21 (racemic) , state whether its Max temperature decrease is at least 4.
(A) label 1

----------
Control reference
- Test system: Felis catus
- testSummary: Maximum decrease of sympathetic nerve activity (SND) in anesthetized cat
- Format: functional
- Design: scale not given: the % may be the effect or the level left
I only need the number, in %, no unit after it.

Reference set (3 entries):
> print(dat)
                                   molecule  propertylabel  numericresult
1  CCCN1[C@@H]2CCc3cccc(OC)c3C2C[C@@H]1C (mixture of isomers)        Control             82
2  C=CCN1CC[C@H]2c3c(cccc3OC)CC[C@H]21 (racemic)        Control            189
3  C=CCN1CCC2c3c(cccc3OC)CC[C@H]21 (single isomer, unassigned; (-))        Control            385

// switching to the query molecule
What the record says about C=CCN1CC[C@H]2c3ccccc3CC[C@H]21 (racemic) : Control is 0

----------
- Test system: Mus musculus
- testSummary: Antagonism of apomorphine for 10-20 minutes in reserpinized mice when a dose of 38 micro mol/kg is administered intraperitoneally
- Assay type: functional
One threshold, 40, splits the recorded Locomotor activity values: lower ones are class 1, equal or higher ones are class 0.

Example cases with answers are listed next.
> print(dat)
                                   compound  classname
1  C=CCN1CC[C@@H]2c3cccc(O)c3CC[C@H]21 (racemic)    class 1
2  C=CCN1CC[C@H]2c3c(O)cccc3CC[C@H]21 (racemic)    class 0
3  C=CCN1CC[C@H]2c3cccc(O)c3CC[C@H]21 (racemic)    class 0
4  C=CCN1CC[C@@H]2c3c(O)cccc3CC[C@H]21 (racemic)    class 1
5  C=CCN1CCC2c3cccc(O)c3CC[C@H]21 (single isomer, unassigned; (-))    class 1

Please turn your attention to the following entry.
(Q) Strictly below 40 in Locomotor activity? C=CCN1CCC2c3cccc(O)c3CC[C@@H]21 (single isomer, unassigned; (+))
(A) class 1
